tested-system: Arabidopsis thaliana SHMT
assay-procedure: SHMT activity assay (ED50 SHMT), coupled with N5,N10-CH2-THF dehydrogenase, NADH at 340 nm
Assay type: biochemical
condition-label: inhibition of initial velocity of Arabidopsis thaliana SHMT
pEC50: −log10 of the molar value.
endpoint-label: pEC50

Here are 2 compounds together with their reported answers.
COc1ccc2cc(C3(C4(F)CC4)C(C#N)=C(N)Oc4[nH]ncc43)ccc2c1 (racemic) [Compound 4.75]	> 6.00
Cc1n[nH]c2c1C(c1ccc(-c3ccccc3)s1)(C1CC1)C(C#N)=C(N)O2 (stereo not shown) [Compound 4.55]	> 7.00

Report value only: pEC50, Arabidopsis thaliana SHMT, Cc1n[nH]c2c1C(c1cc(F)c3c(c1)C=CC(C)(C)O3)(C1CCC1)C(C#N)=C(N)O2 (stereo not shown) [Compound 4.23]
> 8.00

Report value only: pEC50, Arabidopsis thaliana SHMT, Cc1n[nH]c2c1C(c1nc3ccc(Cl)cc3o1)(C1CCC1)C(C#N)=C(N)O2 (stereo not shown) [Compound 4.37]
> 8.00

Report value only: pEC50, Arabidopsis thaliana SHMT, Cc1n[nH]c2c1C(c1cc3cc(Cl)ccc3o1)(C1CCC1)C(C#N)=C(N)O2 (stereo not shown) [Compound 4.7]
> 8.00

Report value only: pEC50, Arabidopsis thaliana SHMT, Cc1n[nH]c2c1C(c1nc3ccccc3o1)(C1CCC1)C(C#N)=C(N)O2 (stereo not shown) [Compound 4.46]
> 8.00

Report value only: pEC50, Arabidopsis thaliana SHMT, Cc1n[nH]c2c1C(c1cc(Cl)c3c(c1)CCO3)(C1CCC1)C(C#N)=C(N)O2 (stereo not shown) [Compound 4.12]
> 8.00

Report value only: pEC50, Arabidopsis thaliana SHMT, Cc1n[nH]c2c1C(c1nc3c(Cl)cccc3s1)(C1CCC1)C(C#N)=C(N)O2 (stereo not shown) [Compound 4.45]
> 8.00

Report value only: pEC50, Arabidopsis thaliana SHMT, Cc1n[nH]c2c1C(c1cc(-c3cccc(F)c3)cs1)(C1CC1)C(C#N)=C(N)O2 (stereo not shown) [Compound 4.60]
> 7.00

Report value only: pEC50, Arabidopsis thaliana SHMT, CCC1(c2cc(F)cc(F)c2F)C(C#N)=C(N)Oc2[nH]nc(C)c21 (stereo not shown) [Compound 3.4]
> 5.00

Report value only: pEC50, Arabidopsis thaliana SHMT, Cc1n[nH]c2c1C(c1ccc3c(c1)CCO3)(C1CCC1)C(C#N)=C(N)O2 (stereo not shown) [Compound 4.32]
> 8.00

Report value only: pEC50, Arabidopsis thaliana SHMT, Cc1n[nH]c2c1C(c1ccc3c(c1)C(F)(F)CCO3)(C1CCC1)C(C#N)=C(N)O2 (stereo not shown) [Compound 4.18]
> 8.00

Report value only: pEC50, Arabidopsis thaliana SHMT, Cc1n[nH]c2c1C(c1cc(-c3cccs3)cs1)(C1CCC1)C(C#N)=C(N)O2 (stereo not shown) [Compound 4.16]
> 8.00

Report value only: pEC50, Arabidopsis thaliana SHMT, Cc1n[nH]c2c1C(c1ccc3c(c1)OCO3)(C1CCC1)C(C#N)=C(N)O2 (stereo not shown) [Compound 4.44]
> 8.00

Report value only: pEC50, Arabidopsis thaliana SHMT, Cc1n[nH]c2c1C(c1cc(C(=O)O)cs1)(C1CCC1)C(C#N)=C(N)O2 (stereo not shown) [Compound 4.66]
> 6.00

Report value only: pEC50, Arabidopsis thaliana SHMT, COc1ccc2cc(C3(C4(F)CC4)C(C#N)=C(N)Oc4[nH]nc(C)c43)ccc2c1 (racemic) [Compound 4.40]
> 8.00
